- target-of-assay: mALDH1a3 (Mus musculus (Mouse))
- assay-text: Aldh1a3 enzyme inhibition assay (recombinant enzyme, resorufin fluorescence)
- Type: biochemical

| cpd-smiles | IC50 |
| --- | --- |
| CCc1cnccc1C(=O)Nc1cc2c(cc1F)NC(=O)CC2 | 0.1 to 0.25 µM |

----------
Entries and their IC50
- target-of-assay: UniProtKB Q9JHW9
- assay-text: Aldh1a3 enzyme inhibition assay (recombinant enzyme, resorufin fluorescence)
- Type: biochemical
- reported-conditions: read-out: mAldh1a3 IC50
test-readout: IC50

| cpd-smiles | measurement |
| --- | --- |
| CCc1cnccc1C(=O)Nc1cc2c(c(C)c1C)NC(=O)CC2 | 0.25 to 1 µM |
| Cc1cc(Nc2cnc3ccccc3n2)cc2c1NC(=O)C(C)(C)C2 | 0.25 to 1 µM |
| CCc1nnccc1C(=O)Nc1cc(C)c2c(c1)CCC(=O)N2 | 0.25 to 1 µM |
| CCc1cnccc1C(=O)Nc1cc(Cl)c2c(c1)CCC(=O)N2 | < 0.1 µM |
| CCc1cnccc1C(=O)Nc1cc2c(cc1C)NC(=O)CC2 | 1 to 5 µM |

----------
- target-of-assay: mALDH1a3 (Mus musculus (Mouse), UniProt Q9JHW9)
- Sequence (Q9JHW9 whole entry): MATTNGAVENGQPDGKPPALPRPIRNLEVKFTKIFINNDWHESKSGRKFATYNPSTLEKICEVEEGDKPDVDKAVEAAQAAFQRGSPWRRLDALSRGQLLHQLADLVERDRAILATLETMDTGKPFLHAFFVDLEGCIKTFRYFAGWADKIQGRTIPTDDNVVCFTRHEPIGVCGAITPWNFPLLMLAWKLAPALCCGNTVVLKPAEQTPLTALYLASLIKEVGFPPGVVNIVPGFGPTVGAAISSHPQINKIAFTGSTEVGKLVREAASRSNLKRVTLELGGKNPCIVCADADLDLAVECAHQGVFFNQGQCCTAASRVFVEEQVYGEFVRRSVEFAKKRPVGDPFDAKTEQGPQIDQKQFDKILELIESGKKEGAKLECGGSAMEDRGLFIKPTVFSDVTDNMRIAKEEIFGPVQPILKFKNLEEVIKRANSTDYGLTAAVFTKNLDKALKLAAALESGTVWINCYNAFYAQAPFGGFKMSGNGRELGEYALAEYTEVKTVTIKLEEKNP
- assay-text: Aldh1a3 enzyme inhibition assay (recombinant enzyme, resorufin fluorescence)
- Assay type: biochemical
- reported-conditions: read-out: mAldh1a3 IC50
pIC50: −log10 of the molar value.
Entries and their pIC50

| cpd-smiles | pIC50 |
| --- | --- |
| O=C1CCc2cc(NC(=O)c3ccncc3CC(F)(F)F)ccc2N1 | > 7.00 |
| CCc1cnccc1C(=O)Nc1cc(F)c2c(c1)CCC(=O)N2 | > 7.00 |
| Cc1cc(NC(=O)c2ccnc3c2CCN3)cc2c1NC(=O)CC2 | 6.00 to 6.60 |
| CCc1cnccc1C(=O)Nc1cc2c(c(C)c1F)NC(=O)CC2 | > 7.00 |
| CCc1cnccc1C(=O)Nc1cc(CC)c2c(c1)CCC(=O)N2 | > 7.00 |
| CCc1cnccc1C(=O)Nc1ccc2c(c1)CCC(=O)N2 | 6.00 to 6.60 |
| CCc1cnccc1C(=O)Nc1cc2c(c3ccncc13)NC(=O)CC2 | > 7.00 |
| CCc1cnccc1C(=O)Nc1cc2c(cn1)NC(=O)CC2 | 6.00 to 6.60 |
| O=C1CCc2cc(NC(=O)c3ccncc3CC(F)(F)F)c(F)c(F)c2N1 | > 7.00 |
| O=C1CCc2cc(NC(=O)c3ccncc3CC3CC3)ccc2N1 | > 7.00 |
| O=C1CCc2cc(NC(=O)c3ccncc3CC(F)(F)F)c(F)cc2N1 | 6.60 to 7.00 |
| CCc1cnccc1C(=O)Nc1cc(C#N)c2c(c1)CCC(=O)N2 | > 7.00 |

----------
- target-of-assay: hALDH1a3 (Homo sapiens (Human), UniProt P47895)
- Sequence (P47895 whole entry): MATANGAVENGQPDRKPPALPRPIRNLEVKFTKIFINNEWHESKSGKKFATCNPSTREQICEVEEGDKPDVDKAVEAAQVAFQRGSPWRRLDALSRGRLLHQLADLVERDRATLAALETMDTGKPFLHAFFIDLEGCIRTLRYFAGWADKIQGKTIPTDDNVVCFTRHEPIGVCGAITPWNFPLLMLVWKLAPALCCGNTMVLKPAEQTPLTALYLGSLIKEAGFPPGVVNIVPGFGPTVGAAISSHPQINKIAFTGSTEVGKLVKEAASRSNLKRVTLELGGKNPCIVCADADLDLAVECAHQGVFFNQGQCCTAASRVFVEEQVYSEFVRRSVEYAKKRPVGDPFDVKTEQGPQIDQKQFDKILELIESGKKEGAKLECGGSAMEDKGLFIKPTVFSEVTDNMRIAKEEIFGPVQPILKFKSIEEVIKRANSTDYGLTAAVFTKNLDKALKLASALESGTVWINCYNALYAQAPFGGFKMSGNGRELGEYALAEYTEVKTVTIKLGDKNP
- assay-text: Cell based assay: STRA6 mRNA by q-rtPCR in MCF7 cells expressing ALDH1a3
- reported-conditions: 20 hours incubation, read-out: IC50 (Aldh1a3), STRA6 mRNA levels
pIC50: −log10 of the molar value.
test-readout: pIC50

| compound | measurement |
| --- | --- |
| CCc1cnccc1C(=O)Nc1cc2c(cc1F)NC(=O)CC2 [MBE1] | 8.44 |

----------
- target-of-assay: mALDH1a2 (Mus musculus (Mouse))
- assay-text: Aldh1a2 enzyme inhibition assay (recombinant enzyme, resorufin fluorescence)
test-readout: log10 of IC50 (log10 of the value in nM)

| cpd-smiles | target-of-assay | measurement |
| --- | --- | --- |
| CCc1cnccc1C(=O)Nc1cc2c(cn1)NC(=O)CC2 | mALDH1a2 (Mus musculus (Mouse)) | 3.50 |
| Cc1cc(Nc2cnc3ccccc3n2)cc2c1NC(=O)C(C)(C)C2 | mALDH1a2 (Mus musculus (Mouse)) | 2.06 |
| Cc1cc(NC(=O)c2ccncc2CC(F)(F)F)cc2c1NC(=O)CC2 | mALDH1a2 (Mus musculus (Mouse)) | 1.93 |
| Cc1cc(NC(=O)c2ccnc3c2CCN3)cc2c1NC(=O)CC2 | mALDH1a2 (Mus musculus (Mouse)) | 2.56 |
| CCc1cnccc1C(=O)Nc1cc(CC)c2c(c1)CCC(=O)N2 | mALDH1a2 (Mus musculus (Mouse)) | 2.66 |

----------
Entries and their pIC50
- target-of-assay: mALDH1a2 (Mus musculus (Mouse), UniProt Q62148)
- Sequence (Q62148 whole entry): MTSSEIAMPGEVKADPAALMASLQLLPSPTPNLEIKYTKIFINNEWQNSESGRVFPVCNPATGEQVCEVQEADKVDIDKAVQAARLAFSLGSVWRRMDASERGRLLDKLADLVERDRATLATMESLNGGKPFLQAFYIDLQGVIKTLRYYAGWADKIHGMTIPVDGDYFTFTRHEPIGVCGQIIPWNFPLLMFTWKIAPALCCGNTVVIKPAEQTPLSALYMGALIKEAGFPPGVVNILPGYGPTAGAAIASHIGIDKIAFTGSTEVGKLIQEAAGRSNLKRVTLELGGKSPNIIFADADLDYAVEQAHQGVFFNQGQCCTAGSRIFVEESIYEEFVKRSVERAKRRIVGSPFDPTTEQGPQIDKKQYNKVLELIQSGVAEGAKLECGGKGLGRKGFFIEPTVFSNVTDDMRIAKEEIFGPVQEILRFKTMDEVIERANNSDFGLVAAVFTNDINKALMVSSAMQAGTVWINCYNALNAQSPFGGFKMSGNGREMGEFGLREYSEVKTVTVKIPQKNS
- assay-text: Aldh1a2 enzyme inhibition assay (recombinant enzyme, resorufin fluorescence)
pIC50: −log10 of the molar value.

| cpd-smiles | target-of-assay | qualifying-sign | pIC50 |
| --- | --- | --- | --- |
| O=C1CCc2cc(NC(=O)c3ccncc3CC(F)(F)F)c(F)c(F)c2N1 | mALDH1a2 (Mus musculus (Mouse), UniProt Q62148) | = | 6.09 |
| O=C1CCc2cc(NC(=O)c3ccncc3CC3CC3)ccc2N1 | mALDH1a2 (Mus musculus (Mouse), UniProt Q62148) | = | 6.31 |
| CCn1cncc1C(=O)Nc1ccc2c(c1)CCC(=O)N2 | mALDH1a2 (Mus musculus (Mouse), UniProt Q62148) | < | 5.00 |
| CCc1cnccc1C(=O)Nc1cc2c(c(C)c1C)NC(=O)CC2 | mALDH1a2 (Mus musculus (Mouse), UniProt Q62148) | = | 6.45 |
| CCc1cnccc1C(=O)Nc1cc2c(cc1C)NC(=O)CC2 | mALDH1a2 (Mus musculus (Mouse), UniProt Q62148) | = | 5.46 |

----------
- target-of-assay: hALDH1a3 (Homo sapiens (Human))
- assay-text: Aldh1a3 enzyme inhibition assay (recombinant enzyme, resorufin fluorescence)
- Type: biochemical
- reported-conditions: read-out: hAldh1a3 IC50
- Method: Cells were resuspended in 10 mM […] pH 7.4, 10 mM KCl. […] Recombinant enzyme and inhibitor added immediately before assay. Reaction rate measured by resorufin fluorescence.
test-readout: IC50

| molecule | measurement |
| --- | --- |
| CCc1cnccc1C(=O)Nc1cc(Cl)c2c(c1)CCC(=O)N2 [Compound 142] | < 100 nM |
| Cc1cc(Nc2ncc3ccccc3n2)cc2c1NC(=O)C(C)(C)C2 [Compound 160] | > 5000 nM |
| CCc1cnccc1C(=O)Nc1cc(F)c2c(c1)CCC(=O)N2 [Compound 141] | < 100 nM |
| CCc1cnccc1C(=O)Nc1cc2c(c(C)c1F)NC(=O)CC2 [Compound 146] | < 100 nM |
| O=C1CCc2cc(NC(=O)c3ccncc3CC(F)(F)F)ccc2N1 [Compound 53] | < 100 nM |
| O=C1CCc2cc(NC(=O)c3ccncc3CC(F)(F)F)c(F)cc2N1 [Compound 82] | < 100 nM |
| CCc1cnccc1C(=O)Nc1cc2c(cn1)NC(=O)CC2 [Compound 159] | 250 to 1000 nM |
| CCc1nnccc1C(=O)Nc1cc(C)c2c(c1)CCC(=O)N2 [Compound 166] | < 100 nM |
| CCc1cnccc1C(=O)Nc1cc2c(c(F)c1F)NC(=O)CC2 [Compound 143] | < 100 nM |
| CCn1cncc1C(=O)Nc1ccc2c(c1)CCC(=O)N2 [Compound 49] | > 5000 nM |
| O=C1CCc2cc(NC(=O)c3ccncc3CC3CC3)ccc2N1 [Compound 59] | < 100 nM |
| Cc1cc(NC(=O)c2ccncc2CC2CC2)cc2c1NC(=O)CC2 [Compound 149] | < 100 nM |
| CCc1cnccc1C(=O)Nc1cc2c(c(C)c1C)NC(=O)CC2 [Compound 147] | 100 to 250 nM |
| CCc1cnccc1C(=O)Nc1cc2c(cc1C)NC(=O)CC2 [Compound 83] | 100 to 250 nM |
| CCc1cnccc1C(=O)Nc1cc2c(c3ccncc13)NC(=O)CC2 [Compound 145] | < 100 nM |
